The reported numbers originate from ChEMBL document CHEMBL1156712.

Measured Activity of individual entries
- System: Mus musculus
- PROCEDURE_DETAILS: Neurotoxicity in ip dosed mouse assessed as minimal motor impairment after 0.5 hrs by rotarod test
- Format: toxicity, organism-based
- CONDITION_SUMMARY: in vivo
Respond numerically; units are mg/kg and should not be typed.

Here are 2 compounds together with their reported answers.
{"columns": ["COMPOUND", "UNIT_LABEL", "Activity"],
 "data": [
  ["O=c1c2ccccc2nc(/C=C/c2ccc(Cl)cc2)n1-c1nnc(-c2ccc(Cl)cc2)s1", "mg/kg", 300],
  ["O=c1c2ccccc2nc(/C=C/c2ccc(Cl)cc2)n1-c1nnc(-c2cccc(Cl)c2)s1", "mg/kg", 300]
]}

Tell me its Activity given NC(=O)N1c2ccccc2C=Cc2ccccc21 [CARBAMAZEPINE] as the entry.
100

Tell me its Activity given O=c1c2ccccc2nc(/C=C/c2ccncc2)n1-c1nnc(-c2ccc(Cl)cc2)s1 as the entry.
300

Tell me its Activity given Cc1ccc(-c2nnc(-n3c(/C=C/c4ccc(Cl)cc4)nc4ccccc4c3=O)s2)cc1 as the entry.
300

---

- System: Mus musculus
- PROCEDURE_DETAILS: Neurotoxicity in ip dosed mouse assessed as minimal motor impairment after 4 hrs by rotarod test
- Type: toxicity, organism-based
- CONDITION_SUMMARY: in vivo
EXPERIMENTAL_READOUT: Activity

Here are 3 compounds together with their reported answers.
{"columns": ["COMPOUND", "TEST_VALUE"],
 "data": [
  ["NC(=O)N1c2ccccc2C=Cc2ccccc21 [CARBAMAZEPINE]", "100 mg/kg"],
  ["COc1ccc(-c2nnc(-n3c(/C=C/c4ccc(Cl)cc4)nc4ccccc4c3=O)s2)cc1", "300 mg/kg"],
  ["O=C1NC(=O)C(c2ccccc2)(c2ccccc2)N1", "100 mg/kg"]
]}

Query compound follows.
Tell me its Activity given O=c1c2ccccc2nc(/C=C/c2ccncc2)n1-c1nnc(-c2cccc(Cl)c2)s1 as the entry.
300 mg/kg

---

- Tested on: Mus musculus
- PROCEDURE_DETAILS: Neurotoxicity in ip dosed mouse assessed as minimal motor impairment after 0.5 hrs by rotarod test
- Type: toxicity, organism-based
- CONDITION_SUMMARY: in vivo
EXPERIMENTAL_READOUT: Activity
Could you give the number and then its unit, please?

Here are 3 compounds together with their reported answers.
{"columns": ["COMPOUND", "Activity"],
 "data": [
  ["Cc1ccc(-c2nnc(-n3c(/C=C/c4ccncc4)nc4ccccc4c3=O)s2)cc1", "100 mg/kg"],
  ["COc1ccc(-c2nnc(-n3c(/C=C/c4ccc(Cl)cc4)nc4ccccc4c3=O)s2)cc1", "300 mg/kg"],
  ["O=c1c2ccccc2nc(/C=C/c2cccc(Cl)c2)n1-c1nnc(-c2ccccc2)s1", "300 mg/kg"]
]}

Tell me its Activity given O=C1NC(=O)C(c2ccccc2)(c2ccccc2)N1 [PHENYTOIN] as the entry.
100 mg/kg

Tell me its Activity given O=c1c2ccccc2nc(/C=C/c2ccncc2)n1-c1nnc(-c2cccc(Cl)c2)s1 as the entry.
300 mg/kg

---

- Tested on: Mus musculus
- PROCEDURE_DETAILS: Anticonvulsant activity in ip dosed mouse after 4 hrs by MES test
- Type: functional
EXPERIMENTAL_READOUT: Active dose

{"columns": ["COMPOUND", "Active dose"],
 "data": [
  ["NC(=O)N1c2ccccc2C=Cc2ccccc21 [CARBAMAZEPINE]", "100 mg/kg"]
]}

Tell me its Active dose given O=c1c2ccccc2nc(/C=C/c2ccncc2)n1-c1nnc(-c2ccc(Cl)cc2)s1 as the entry.
100 mg/kg

Tell me its Active dose given O=c1c2ccccc2nc(/C=C/c2ccc(Cl)cc2)n1-c1nnc(-c2ccccc2)s1 as the entry.
300 mg/kg

Tell me its Active dose given O=C1NC(=O)C(c2ccccc2)(c2ccccc2)N1 as the entry.
30 mg/kg
